- Test system: OSC-20 (Oral Cavity Carcinoma)
- Assay Notes: combination Emax (second highest fraction inhibited in the dose matrix, 72 h); higher = more inhibition; extreme values may be limits of the assay
Quantity Name: combination Emax

OSC-20 (Oral Cavity Carcinoma) assay, molecule NC1(C(=O)N[C@@H](CCO)c2ccc(Cl)cc2)CCN(c2ncnc3[nH]ccc23)CC1 [Capivasertib] + Cn1cnc2c(F)c(Nc3ccc(Br)cc3Cl)c(C(=O)NOCCO)cc21 [Selumetinib] (first compound max 10 µM, 7x7, partner max 10 µM) , recorded combination Emax = 0.451

* * *

- Tested on: Hs-766T (Pancreatic Carcinoma)
- Assay Notes: combination Emax (second highest fraction inhibited in the dose matrix, 72 h); higher = more inhibition; extreme values may be limits of the assay
Quantity Name: combination Emax
// response body must contain only the number

>>> quantitative_result("Cc1cc2ncnn2cc1Nc1ncc2c(n1)n(C1CCOCC1)c(=O)n2C [AZD7648] + O=C(c1cc(Cc2n[nH]c(=O)c3ccccc23)ccc1F)N1CCN(C(=O)C2CC2)CC1 [Olaparib] (first compound max 10 µM, 7x7, partner max 10 µM)")
0.353

Value of combination Emax reported for the compound Cc1cc2ncnn2cc1Nc1ncc2c(n1)n(C1CCOCC1)c(=O)n2C [AZD7648] + C[C@@H]1COCCN1C2=NC(=NC(=C2)C3(CC3)[S@](=N)(=O)C)C4=C5C=CNC5=NC=C4 [AZD6738] (first compound max 10 µM, 7x7, partner max 10 µM) is 0.636
